- System: Target C
- ASSAY METHOD TEXT: HiBiT protein abundance assay, Target C (Promega Nano-Glo HiBiT Lytic Detection System, knock-in K562 cell line)
- Assay type: cell-based, human
- TEST CONTEXT: Homo sapiens, K562, 24 h, HiBiT K562 cell line, 24 hours, top dose 10 μM; read-out: Effect on protein abundance, Target C (IC50 category)
pIC50: −log10 of the molar value.
READOUT TYPE: pIC50

COc1c(-c2ccc3c(=O)n(C4CCNCC4)cnc3n2)cc2cn(C)nc2c1C [Compound 506]; < 5.00
Cc1cc(-c2cc3ccn(C4CCN(C5CC5)CC4)c(=O)c3cn2)cc2cn(C)nc12 [Compound 1208]; < 5.00
Cc1cn2nc(-c3ccc4c(=O)n([C@H]5CCNC6(CC6)C5)ccc4c3)cc(C)c2n1 [Compound 445]; > 7.00
CN1CCN(c2ccc3c(=O)n(-c4ccc5nn(C)cc5c4)cnc3c2)CC1 [Compound 152]; < 5.00
Cc1cn2cc(-c3cc(N)c4c(=O)n(C5CCNCC5)cnc4c3)cc(C#N)c2n1 [Compound 364]; < 5.00

## Task I would be grateful if you could share the reported pIC50 for Cc1cn2nc(-c3cc(N)c4c(=O)n([C@H]5CCNC5)ccc4c3)cc(C)c2n1 [Compound 645] .
## Result < 5.00

## Task Param item: Cc1cn2nc(-c3cc4ncn(C5CCNCC5)c(=O)c4cc3F)cc(C)c2n1 [Compound 585]
## Result 5.00 to 6.00

## Task Param item: Cc1cn2cc(-c3ccc4c(=O)n(C5CCNCC5)ccc4n3)nc(C)c2n1 [Compound 1238]
## Result < 5.00
